Test system: EKVX
measurement-description: Growth inhibition of human EKVX cells at 10 uM incubated for 48 hrs by sulforhodamine B assay
Assay type: functional, cell-based
The source made the active and inactive calls. The calls are words filed in the database; no cut-off is given here.
Possible outcomes: active, inactive

1. COc1ccc(C2=NN(c3ccccc3)C(c3cccc(Nc4ccnc5cc(Cl)ccc45)c3)C2)cc1 (centres undefined)	inactive
2. Clc1ccc(C2=NN(c3cc(Cl)cc(Cl)c3)C(c3cccc(Nc4ccnc5cc(Cl)ccc45)c3)C2)cc1 (centres undefined)	inactive
3. COc1ccc(C2=NN(C=O)C(c3cccc(Nc4ccnc5cc(Cl)ccc45)c3)C2)cc1 (centres undefined)	active
4. Clc1ccc(C2=NN(c3ccc(Cl)cc3)C(c3cccc(Nc4ccnc5cc(Cl)ccc45)c3)C2)cc1 (centres undefined)	inactive

----------
Test system: Cryptococcus neoformans
measurement-description: Growth inhibition of Cryptococcus neoformans ATCC 32264 at 3.4 ug/ml incubated for 48 hrs under dark condition by broth microdilution method relative to control
Format: functional
assay-setup: ATCC 32264, 48 h, read-out: GI
metric: inhibition of growth at 3.4 µg/mL (%)

1. CC(=O)N1N=C(c2ccccc2)CC1c1cccc(Nc2ccnc3cc(Cl)ccc23)c1 (stereo not given)	0
2. COc1cc(C2=NN(c3cc(Cl)cc(Cl)c3)C(c3cccc(Nc4ccnc5cc(Cl)ccc45)c3)C2)cc(OC)c1OC (stereo not given)	0
3. Cc1ccc(C2=NN(c3cc(Cl)cc(Cl)c3)C(c3cccc(Nc4ccnc5cc(Cl)ccc45)c3)C2)cc1 (stereo not given)	0
4. COc1cc(C2=NN(C(C)=O)C(c3cccc(Nc4ccnc5cc(Cl)ccc45)c3)C2)cc(OC)c1OC (stereo not given)	4.02
5. Clc1ccc(C2=NN(c3cc(Cl)cc(Cl)c3)C(c3cccc(Nc4ccnc5cc(Cl)ccc45)c3)C2)cc1 (stereo not given)	0
6. O=CN1N=C(c2ccc(Cl)cc2)CC1c1cccc(Nc2ccnc3cc(Cl)ccc23)c1 (stereo not given)	37.7
7. Clc1ccc(N2N=C(c3ccccc3)CC2c2cccc(Nc3ccnc4cc(Cl)ccc34)c2)cc1 (stereo not given)	0
8. Cc1ccc(C(=O)/C=C/c2cccc(Nc3ccnc4cc(Cl)ccc34)c2)cc1	41.4
9. CC(=O)N1N=C(c2ccc(Cl)cc2)CC1c1cccc(Nc2ccnc3cc(Cl)ccc23)c1 (stereo not given)	11.1
10. Cc1ccc(C2=NN(c3ccccc3)C(c3cccc(Nc4ccnc5cc(Cl)ccc45)c3)C2)cc1 (stereo not given)	0
11. Clc1ccc(C2=NN(c3ccccc3)C(c3cccc(Nc4ccnc5cc(Cl)ccc45)c3)C2)cc1 (stereo not given)	0
12. COc1cc(C2=NN(c3ccccc3)C(c3cccc(Nc4ccnc5cc(Cl)ccc45)c3)C2)cc(OC)c1OC (stereo not given)	0
13. COc1cc(C2=NN(C=O)C(c3cccc(Nc4ccnc5cc(Cl)ccc45)c3)C2)cc(OC)c1OC (stereo not given)	0
14. Clc1ccc(N2N=C(c3ccc(Br)cc3)CC2c2cccc(Nc3ccnc4cc(Cl)ccc34)c2)cc1 (stereo not given)	0
15. O=CN1N=C(c2ccc(Br)cc2)CC1c1cccc(Nc2ccnc3cc(Cl)ccc23)c1 (stereo not given)	24.2
16. O=C(/C=C/c1cccc(Nc2ccnc3cc(Cl)ccc23)c1)c1ccc(Br)cc1	34.9
17. Clc1cc(Cl)cc(N2N=C(c3ccc(Br)cc3)CC2c2cccc(Nc3ccnc4cc(Cl)ccc34)c2)c1 (stereo not given)	0
18. Clc1ccc2c(Nc3cccc(C4CC(c5ccccc5)=NN4c4ccccc4)c3)ccnc2c1 (stereo not given)	9.75
19. O=Cc1cccc(Nc2ccnc3cc(Cl)ccc23)c1	5.03
20. Cc1ccc(C2=NN(c3ccc(Cl)cc3)C(c3cccc(Nc4ccnc5cc(Cl)ccc45)c3)C2)cc1 (stereo not given)	0
